Sourced from paper PMC10254530

Test system: L-02 cells
protocol_description: CCK-8 cytotoxicity assay, normal liver L-02
Assay type: cell-based
setup_conditions: Homo sapiens, L02; CCK-8, 48 h, normal liver cells, mean ± SD of three experiments; read-out: IC50 L-02
Answer each item with its documented IC50.

Give recorded IC50 with L-02 cells for the following molecule: C[C@H]1CCC/C=C/[C@@H]2C[C@H](OC(=O)/C=C\C(=O)OCC#CCOC(=O)c3ccc(N=C=S)cc3)C[C@H]2[C@H](OC(=O)/C=C\C(=O)OCC#CCOC(=O)c2ccc(N=C=S)cc2)/C=C/C(=O)O1 [Compound 8i] > 80 µM

Give recorded IC50 with L-02 cells for the following molecule: C[C@H]1CCC/C=C/[C@@H]2C[C@H](O)C[C@H]2[C@H](OC(=O)c2ccc(N=C=S)cc2)/C=C/C(=O)O1 [Compound 6] > 80 µM

Give recorded IC50 with L-02 cells for the following molecule: C[C@H]1CCC/C=C/[C@@H]2C[C@H](OC(=O)c3ccc(N=C=S)cc3)C[C@H]2[C@H](OC(=O)c2ccc(N=C=S)cc2)/C=C/C(=O)O1 [Compound 5] > 80 µM
